Tested on: SK-MEL-2 melanoma
Assay: NCI-60 one-dose screen, 48 h
Settings: 10 µM unless noted
Protocol: Growth inhibition of the SK-MEL-2 human tumor cell line is measured as a screen for anti-cancer activity. Cells are grown in 96 well plates and exposed to the test compound for 48 hours. Compounds are tested at a single concentration, which is 10^-5 M for most compounds. The reported endpoint is percent growth (GI% or GIPRCNT), where numbers from 0 - 100% represent growth inhibition, and numbers from -100% - 0 represent cell death. For example, a value of 40 represents 60% growth inhibition. […]
Compounds without any hit were thinned out: in the full panel of roughly 83,000, 20% have a hit. Active and inactive are the calls of the source. How the source made its calls: active means growth percent below 10; inactive means the rest.
Labels: active, inactive

[[record]]
compound = "O=C1c2ccccc2-c2c1c1ccncc1c(=O)n2CCCn1ccnc1"
group_label = "inactive"

[[record]]
compound = "O=C(/C=C/C12c3ccccc3C(c3ccccc31)C1C(=O)NC(=O)C12)c1cccs1 (stereo not drawn)"
group_label = "inactive"

[[record]]
compound = "O=C(Nc1ccc2[nH]ncc2c1)c1csc(Nc2ccccc2)n1"
group_label = "inactive"

[[record]]
compound = "COc1ccc(/C(C)=C(\\c2ccc(Cl)cc2)c2ccc(OCCCN(C)C)cc2)cc1"
group_label = "inactive"

[[record]]
compound = "COc1ccc(C(=O)C2OC3=C(C(=O)CC(C)(C)C3)C2c2cccc(Oc3ccccc3)c2)cc1 (stereo not drawn)"
group_label = "inactive"

[[record]]
compound = "O=C(Nc1ccccc1C(F)(F)F)C1=NCCCCN1"
group_label = "inactive"

[[record]]
compound = "Cn1ncc(CC(=O)O)c1-n1nnc2cc(Cl)ccc2c1=O"
group_label = "inactive"

[[record]]
compound = "Cn1cc(-c2csc(-c3cn(C)c4ccc(F)cc34)n2)c2cnccc21"
group_label = "inactive"

[[record]]
compound = "COc1ccc(Nc2nccc(Nc3ccc4[nH]ncc4c3)n2)cc1"
group_label = "inactive"

[[record]]
compound = "CCCc1cc(CCC)n2nc(N)nc2n1"
group_label = "inactive"

[[record]]
compound = "COc1cccc(NC(=O)c2sc3nc(C)c(C(=O)c4ccccc4)cc3c2N)c1"
group_label = "inactive"

[[record]]
compound = "Cn1cc(-c2nc(-c3c[nH]c4ccncc34)cs2)c2cc(F)ccc21"
group_label = "active"

[[record]]
compound = "N#CC1=C(N)Oc2c(ccc3cccnc23)C1c1ccccc1 (stereo not drawn)"
group_label = "inactive"

[[record]]
compound = "Clc1ccc2c(NCCCn3cnc4c(N5CCCC5)nc(Cl)nc43)ccnc2c1"
group_label = "inactive"

[[record]]
compound = "CN1CCN(Cc2ccc(NC(=O)c3cncc(C#Cc4c(N)ncc5ccccc45)c3)cc2C(F)(F)F)CC1"
group_label = "active"

[[record]]
compound = "Cc1ccccc1NC(=O)Cn1cc(CN2CCN(c3ccnc4cc(Cl)ccc34)CC2)nn1"
group_label = "inactive"

[[record]]
compound = "CC(C)c1nc(N(C)S(C)(=O)=O)nc(-c2ccc(F)cc2)c1/C=C/C(=O)C[C@@H](O)CC(=O)O"
group_label = "inactive"

[[record]]
compound = "COc1cc2nc3cc([N+](=O)[O-])ccc3c(NCCCNCCO)c2cc1OC"
group_label = "active"

[[record]]
compound = "COC(=O)c1nc(-c2ccc(C)cc2)oc1N1CCOCC1"
group_label = "inactive"

[[record]]
compound = "NC(=N\\N=C/c1ccc(Cl)cc1Cl)/C(N)=N\\N=C/c1ccc(Cl)cc1Cl"
group_label = "inactive"

[[record]]
compound = "COc1cc(C)cc(-c2c(-c3cc(N4CC(O)C4)nc(-c4cccnc4)n3)cnn2C)c1"
group_label = "inactive"

[[record]]
compound = "CN(C)CC1C(=O)O[C@H]2[C@H]1CC/C(COC(=O)NCc1ccc(Cn3c(=O)sn(CCCI)c3=O)cc1)=C\\CC[C@@]1(C)O[C@@H]21 (stereo partly drawn)"
group_label = "inactive"

[[record]]
compound = "COC(=O)CCc1c(/C=C2\\N=C(c3ccc[nH]3)C=C2OC)[nH]c(C)c1C(=O)OCc1ccccc1"
group_label = "active"

[[record]]
compound = "CN1CCN(c2ccc(Nc3ncc4[nH]c(=O)n(Cc5ccccc5N)c4n3)cc2)CC1"
group_label = "inactive"

[[record]]
compound = "O=C(Nc1cccc2c1C(=O)c1cccc(NC(=O)c3ccc(C(=O)Nc4cccc5c4C(=O)c4cccc(NC(=O)c6ccccc6)c4C5=O)cc3)c1C2=O)c1ccccc1"
group_label = "inactive"

[[record]]
compound = "C=C(C)[C@@H]1CC[C@]2(COCCCNCCCN)CC[C@]3(C)[C@H](CC[C@@H]4[C@@]5(C)CC[C@H](OCCCN)C(C)(C)[C@@H]5CC[C@]43C)[C@@H]12"
group_label = "inactive"

[[record]]
compound = "COc1cc(C(=O)c2c(-c3ccccc3)oc3ccccc23)cc(OC)c1O"
group_label = "inactive"

[[record]]
compound = "CC1(C)C2=C(C(=O)N1Cc1ccccc1)C(c1ccco1)N(C(=O)C1CCC1)CCN2 (stereo not drawn)"
group_label = "inactive"

[[record]]
compound = "CCN(CC)CCCNc1cc(OC)cc2cccnc12"
group_label = "inactive"

[[record]]
compound = "O=C1c2cccnc2C(=O)c2c1c(C(=O)OCCCN1CCOCC1)c1ccccn21"
group_label = "active"

[[record]]
compound = "CC(CN)[C@@H]1CC[C@]2(CO)CC[C@]3(C)[C@H](CC[C@@H]4[C@@]5(C)CCC(NCCO)C(C)(C)[C@@H]5CC[C@]43C)[C@@H]12 (stereo partly drawn)"
group_label = "inactive"

[[record]]
compound = "CCC(=C(c1ccc(OCCN(CC)CC)cc1)c1ccc(OCCN(CC)CC)cc1)c1ccc(Cl)cc1"
group_label = "active"

[[record]]
compound = "Cc1[nH]c(C(=O)Nc2ccccc2OC2CCNC2)c(Cl)c1Cl (stereo not drawn)"
group_label = "inactive"

[[record]]
compound = "CCOC(=O)/C(=C\\c1ccccc1Cl)P(=O)(OCC)OCC"
group_label = "inactive"

[[record]]
compound = "Cn1ccnc1C(=O)/C=C/c1ccc(C(=O)Nc2ccccc2F)cc1"
group_label = "inactive"

[[record]]
compound = "Nc1ccc(N)c2c1C(=O)c1cccc([N+](=O)[O-])c1C2=O"
group_label = "inactive"

[[record]]
compound = "C=C1C(=O)O[C@H]2[C@H]1CC/C(COC(=O)NCc1ccc(Cn3c(=O)sn(CCCC)c3=O)cc1)=C\\CC[C@@]1(C)O[C@@H]21"
group_label = "inactive"

[[record]]
compound = "O=c1c(Cc2ccc(F)cc2)cc(-c2ccccc2)nn1C/C(=N/O)c1ccccc1"
group_label = "inactive"


###

growth reference
system: MDA-MB-231 breast; assay: NCI-60 one-dose screen, 48 h (100 = growth as untreated, 0 = no growth, -100 = all killed); details: 10 µM unless noted
Compounds without any hit were thinned out: in the full panel of roughly 83,000, 20% have a hit. Calls of active or inactive are those of the source. Rule for the calls: active = growth percent below 10; inactive = the rest.
METRIC: growth

[[record]]
compound = "FC(F)(F)c1cc(N2CCCCC2)nc(NCCCNc2ccnc3cc(Cl)ccc23)n1"
metric = "growth"
reported = "87.9% (inactive)"

[[record]]
compound = "Nc1nc(N)c2c(n1)NC(c1ccc3c(c1)OCO3)CC(c1cccc(Nc3ccncc3)c1)=N2 (stereo not drawn)"
metric = "growth"
reported = "94.2% (inactive)"

[[record]]
compound = "O=C(Nc1cccc(Cl)c1)Oc1c(Cl)c(Cl)c(Cl)c(Cl)c1Cl"
metric = "growth"
reported = "94.3% (inactive)"

[[record]]
compound = "CC(C)(C#N)c1cc(C(=O)Nc2cc(Nc3ncccc3-c3ncnc4nc[nH]c34)ccc2F)cc(C(F)(F)F)c1"
metric = "growth"
reported = "18.3% (inactive)"

[[record]]
compound = "C=CCn1c(SCC(=O)Nc2ccc(C(=O)/C=C/c3ccc(Cl)cc3)cc2)nnc1-c1ccccc1"
metric = "growth"
reported = "101% (inactive)"

[[record]]
compound = "COc1ccc(NC(=O)CSc2oc(-c3ccccc3)nc2S(=O)(=O)c2ccc(Cl)cc2)c(OC)c1"
metric = "growth"
reported = "47.5% (inactive)"

[[record]]
compound = "COC1CC(O)C2=C(CC3C(/C(C)=C\\CC=C(C)C)CCC3(C)O2)C1=O (stereo not drawn)"
metric = "growth"
reported = "115% (inactive)"

[[record]]
compound = "CC(C)(C)n1cc(-c2ccnc(NCCNS(=O)(=O)c3cccc4ccccc34)c2)c(-c2cccc(O)c2)n1"
metric = "growth"
reported = "81.9% (inactive)"

[[record]]
compound = "CCN1CCN(CCOc2ccc(CNc3ccc4nc(CCC5CCCCC5)[nH]c4c3)cc2)CC1"
metric = "growth"
reported = "-31.4% (active)"

[[record]]
compound = "Cc1c(Cl)cccc1NC(=O)c1sc2nc3c(cc2c1N)CCCC3"
metric = "growth"
reported = "49.5% (inactive)"

[[record]]
compound = "CNC1=C(Br)C(=O)c2c(C(=O)OC)c(C)nc(C)c2C1=O"
metric = "growth"
reported = "71.6% (inactive)"

[[record]]
compound = "COc1ccc(-c2nc(SCCC(C)C)nc(N/N=C(/C)c3ccc(N)cc3)c2C#N)cc1"
metric = "growth"
reported = "82.3% (inactive)"

[[record]]
compound = "C=C(CNCCc1ccc(O)cc1)[C@@H]1CC[C@]2(CO)CC[C@]3(C)[C@H](CC[C@@H]4[C@@]5(C)CCC(N)C(C)(C)[C@@H]5CC[C@]43C)[C@@H]12 (stereo partly drawn)"
metric = "growth"
reported = "-80.5% (active)"

[[record]]
compound = "O=CN1N=C(c2cccc(Nc3ccncc3)c2)CC1c1ccc2c(c1)OCO2 (stereo not drawn)"
metric = "growth"
reported = "103% (inactive)"

[[record]]
compound = "CC(C)(C)CC(C)(C)Nc1c(-c2c(O)c3ccccc3oc2=O)nc2sccn12"
metric = "growth"
reported = "93% (inactive)"

[[record]]
compound = "CC/C(=C(/c1ccc(Cl)cc1)c1ccc(OCCN(CC)CC)cc1)c1ccc(OC)cc1"
metric = "growth"
reported = "71.8% (inactive)"

[[record]]
compound = "CC(C)=CCC[C@](C)(O)C1CC[C@]2(C)[C@@H]1CC[C@@H]1[C@@]3(C)CC/C(=N\\OCCC#N)C(C)(C)[C@@H]3CC[C@]12C (stereo partly drawn)"
metric = "growth"
reported = "94.1% (inactive)"

[[record]]
compound = "Oc1cccc(-c2nc(-c3n[nH]c(=S)n3-c3ccccc3)cc3c2[nH]c2ccccc23)c1"
metric = "growth"
reported = "45.7% (inactive)"

[[record]]
compound = "CN(C)c1ccc(/C=N/NC(=O)CSc2nc3sc4c(c3c(=O)n2-c2ccccc2)CCCCC4)cc1"
metric = "growth"
reported = "43.8% (inactive)"

[[record]]
compound = "COc1cccc(/C=C/C(=O)/C=C(/C=C/c2cccc(OC)c2OC)OB(F)F)c1OC"
metric = "growth"
reported = "60.3% (inactive)"

[[record]]
compound = "Oc1cccc2c1NCCC2"
metric = "growth"
reported = "6.35% (active)"

[[record]]
compound = "CS(=O)(=O)Nc1cc(-c2ccc3ncnc(Nc4cccc(Cl)c4)c3c2)cnc1Cl"
metric = "growth"
reported = "7.96% (active)"

[[record]]
compound = "COC(=O)c1c(C)nc(C)c2c1C(=O)C(Br)=C(NCCN1CCOCC1)C2=O"
metric = "growth"
reported = "112% (inactive)"

[[record]]
compound = "N#CSCc1cc(Cl)c(CSC#N)cc1Cl"
metric = "growth"
reported = "57.6% (inactive)"

[[record]]
compound = "CCOc1ccccc1NC(=O)CCC(=O)OC"
metric = "growth"
reported = "107% (inactive)"

[[record]]
compound = "COC(=O)c1cc(-c2cc(OC)c(OC)c(OC)c2)[nH]c1N/N=C/c1c(Cl)cccc1Cl"
metric = "growth"
reported = "23.6% (inactive)"

[[record]]
compound = "CCCCCCCCCCCCCC[n+]1ccc2c(C)c3c(c(C)c2c1)c1cc(O)ccc1n3CC"
metric = "growth"
reported = "-74.6% (active)"

[[record]]
compound = "Cc1ccc(C(=O)Nc2ccc(CN3CCN(C)CC3)c(C(F)(F)F)c2)cc1C#Cc1cnc(N)c2ccccc12"
metric = "growth"
reported = "-63.4% (active)"

[[record]]
compound = "CCOC(=O)CCC(=O)P(=O)(O)O"
metric = "growth"
reported = "119% (inactive)"

[[record]]
compound = "Cc1c(C)c2c(c(C)c1OC(=O)CCC(=O)[O-])CCC(C)(CCCCCCCCCCC[P+](c1ccccc1)(c1ccccc1)c1ccccc1)O2 (stereo not drawn)"
metric = "growth"
reported = "-34.2% (active)"

[[record]]
compound = "NCCCCCNc1noc(Cc2c[nH]c3cc(Br)ccc23)n1"
metric = "growth"
reported = "51.2% (inactive)"

[[record]]
compound = "Cc1cc([N+](=O)[O-])ccc1NC(=O)c1ccc2c(c1)nc(-c1ccccc1)n2C1CCCCC1"
metric = "growth"
reported = "84.4% (inactive)"

[[record]]
compound = "CN1CCN(Cc2ccc(NC(=O)c3cc(C#Cc4cnc(N)c5ncccc45)n(C)n3)cc2C(F)(F)F)CC1"
metric = "growth"
reported = "102% (inactive)"

[[record]]
compound = "CC1(C)C2=C(C(=O)N1Cc1ccccc1)C(c1ccco1)N(C(=O)C1CCC1)CCN2 (stereo not drawn)"
metric = "growth"
reported = "95.5% (inactive)"

[[record]]
compound = "C=CCNc1nc(O)c(/C=C2\\C=Nc3ncccc32)s1"
metric = "growth"
reported = "19.8% (inactive)"

[[record]]
compound = "COc1ccc(NC(=O)c2ccc(NC3=C(c4ccc(Cl)cc4)C(=O)NC3=O)cc2)cc1"
metric = "growth"
reported = "84.8% (inactive)"

[[record]]
compound = "CCOc1cc(\\C=N/N=C(N)/C(N)=N\\N=C/c2ccc(O)c(OCC)c2)ccc1O"
metric = "growth"
reported = "94.7% (inactive)"

[[record]]
compound = "CCCNNC(=O)c1ccc(CNC(=O)/C=C/c2ccccc2)cc1"
metric = "growth"
reported = "55.7% [2.5 µM] (inactive)"

